Test: Pharmacokinetics in SD rats after single IV and PO administration, plasma
Type: in vivo
Experimental Context: Sprague-Dawley (SD); rat plasma; IV 1 mg/kg
Rule for this label: class 1 means AUC(0-inf) is less than 20000 ng·h/mL; class 0 means AUC(0-inf) is at least 20000 ng·h/mL.

// known answers, use as guide
| Compound | Group Label |
| --- | --- |
| O=C(O)[C@@H]1C[C@H]1c1ccc(Cn2ccnc2)cc1 [Compound 19] | class 1 |
| O=C(O)[C@@H]1C[C@H]1c1ccc(Cn2cnc(F)c2)c(Cl)c1 [Compound 18] | class 0 |
| O=C(O)[C@@H]1C[C@H]1c1ccc(Cn2cnc(Cl)c2)c(Cl)c1 [Compound 11] | class 0 |
| O=C(O)/C=C/c1ccc(Cn2ccnc2)cc1 [Ozagrel, reference compound] | class 1 |
| O=C(O)[C@@H]1C[C@H]1c1ccc(Cn2cnc(F)c2)cc1F [Compound 17] | class 1 |

Please find the next compound below.
Lookup: Here's an entry: O=C(O)[C@@H]1C[C@H]1c1ccc(Cn2ccnc2)c(F)c1 [Compound 15] . Is its AUC(0-inf) below 20000 ng·h/mL?
Found: class 1

====

Test: Blood-brain barrier (BBB) study in SD rats after single IV and PO administration, brain
Type: in vivo
Experimental Context: rat brain; PO 6 mg/kg
Reported Endpoint: AUC(0−∞)

| Compound | Observed Measurement |
| --- | --- |
| O=C(O)[C@@H]1C[C@H]1c1ccc(Cn2cnc(F)c2)c(Cl)c1 [Compound 18] | 7477.48 ng·h/g |

AUC(0−∞) reading for O=C(O)[C@@H]1C[C@H]1c1ccc(Cn2ccnc2)c(F)c1 [Compound 15] : 853.63 ng·h/g

Documented AUC(0−∞) of O=C(O)[C@@H]1C[C@H]1c1ccc(Cn2ccnc2)cc1 [Compound 19] : 296.91 ng·h/g

Measured AUC(0−∞), O=C(O)[C@@H]1C[C@H]1c1ccc(Cn2cnc(F)c2)cc1F [Compound 17] : 2336.46 ng·h/g

# AUC(0−∞) of O=C(O)/C=C/c1ccc(Cn2ccnc2)cc1 [Ozagrel, reference compound] = 37.46 ng·h/g

====

Test: Pharmacokinetics in SD rats after single IV and PO administration, plasma
Format: in vivo
Experimental Context: Sprague-Dawley (SD); rat plasma; PO 6 mg/kg
Reported Endpoint: AUC(0-inf) (µg·h/mL)
Your answer should be a plain number; it is taken to be in µg·h/mL.

// known answers, use as guide
| Compound | Reported Endpoint | Observed Measurement |
| --- | --- | --- |
| O=C(O)[C@@H]1C[C@H]1c1ccc(Cn2ccnc2)c(F)c1 [Compound 15] | AUC(0-inf) | 80.7 |
| O=C(O)[C@@H]1C[C@H]1c1ccc(Cn2cnc(F)c2)c(Cl)c1 [Compound 18] | AUC(0-inf) | 757 |
| O=C(O)[C@@H]1C[C@H]1c1ccc(Cn2cnc(F)c2)cc1F [Compound 17] | AUC(0-inf) | 179 |
| O=C(O)/C=C/c1ccc(Cn2ccnc2)cc1 [Ozagrel, reference compound] | AUC(0-inf) | 2.68 |
| O=C(O)[C@@H]1C[C@H]1c1ccc(Cn2ccnc2)cc1 [Compound 19] | AUC(0-inf) | 36.6 |

O=C(O)[C@@H]1C[C@H]1c1ccc(Cn2cnc(Cl)c2)c(Cl)c1 [Compound 11] yielded AUC(0-inf) of 1700
